- TESTED ON: Focal adhesion kinase 1 (Homo sapiens)
- Sequence (Q05397 whole entry): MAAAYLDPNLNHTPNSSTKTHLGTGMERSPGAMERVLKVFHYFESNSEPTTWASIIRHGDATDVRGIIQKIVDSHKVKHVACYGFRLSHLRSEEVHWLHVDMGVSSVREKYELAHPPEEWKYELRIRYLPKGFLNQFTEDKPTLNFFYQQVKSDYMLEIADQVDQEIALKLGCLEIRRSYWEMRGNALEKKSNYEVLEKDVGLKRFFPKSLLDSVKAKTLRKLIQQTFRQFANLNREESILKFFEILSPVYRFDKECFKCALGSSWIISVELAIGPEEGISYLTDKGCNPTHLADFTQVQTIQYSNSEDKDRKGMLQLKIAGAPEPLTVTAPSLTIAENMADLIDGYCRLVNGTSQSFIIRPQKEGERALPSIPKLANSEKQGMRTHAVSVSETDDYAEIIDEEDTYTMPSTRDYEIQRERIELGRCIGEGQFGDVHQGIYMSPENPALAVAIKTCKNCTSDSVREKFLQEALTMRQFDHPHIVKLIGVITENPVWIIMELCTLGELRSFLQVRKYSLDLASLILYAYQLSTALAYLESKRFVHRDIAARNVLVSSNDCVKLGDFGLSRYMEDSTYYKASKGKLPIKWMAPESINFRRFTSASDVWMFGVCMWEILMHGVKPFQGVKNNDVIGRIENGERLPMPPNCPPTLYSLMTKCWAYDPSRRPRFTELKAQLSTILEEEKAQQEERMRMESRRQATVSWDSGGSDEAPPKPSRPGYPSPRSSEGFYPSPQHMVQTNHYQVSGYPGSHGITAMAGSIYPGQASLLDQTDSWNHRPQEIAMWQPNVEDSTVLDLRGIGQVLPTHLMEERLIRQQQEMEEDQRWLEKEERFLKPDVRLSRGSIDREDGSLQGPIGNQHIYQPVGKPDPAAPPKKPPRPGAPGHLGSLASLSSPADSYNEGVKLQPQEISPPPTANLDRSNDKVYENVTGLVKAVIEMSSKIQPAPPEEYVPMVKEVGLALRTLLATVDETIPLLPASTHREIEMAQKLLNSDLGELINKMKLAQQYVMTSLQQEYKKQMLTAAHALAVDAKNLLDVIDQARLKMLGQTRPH
- MEASUREMENT DESCRIPTION: Inhibition of pre-activated recombinant full length FAK (unknown origin) using ULight labeled poly(Glu/Tyr) as substrate after 1.6 hrs by TR-FRET assay
Param label: returns 1 when IC50 < 20 µM, returns -1 otherwise, including exact equality.

{"SMILES REPRESENTATION": "CNC(=O)c1ccccc1Nc1ncnc(Nc2cc(OC)c(OC)c(OC)c2)n1", "CLASS LABEL": 1}
{"SMILES REPRESENTATION": "CNc1nc(Nc2cc(OC)c(OC)c(OC)c2)nc(Nc2ccccc2NS(C)(=O)=O)n1", "CLASS LABEL": -1}
{"SMILES REPRESENTATION": "CNC(=O)c1ccccc1Nc1ncnc(Nc2ccc(CN)cc2)n1", "CLASS LABEL": 1}

Please state whether IC50 is below 20 µM for COc1cc(Nc2nc(C)nc(Nc3ccccc3NC(C)=O)n2)cc(OC)c1OC
-1

is_below(IC50, 20 µM) for COc1cc(Nc2ncnc(Nc3ccccc3C(=O)NCCO)n2)cc(OC)c1OC ?
-1

Below 20 µM on IC50? Entry COc1ccc(Nc2ncnc(Nc3ccccc3NC(C)=O)n2)c(OC)c1
-1

Take the molecule COc1ccc(Nc2ncnc(Nc3ccccc3NS(C)(=O)=O)n2)c(OC)c1 and say whether its IC50 is less than 20 µM.
1

Decide: IC50 of COc1cc(Nc2nc(Nc3ccccc3NC(C)=O)nc(C(F)(F)F)n2)cc(OC)c1OC strictly below 20 µM?
-1

Reference source for all entries: ChEMBL document CHEMBL2406973
